# Organism: Rattus norvegicus
# PROTOCOL DETAILS: Increase in heart rate in rat at 0.01 mM
# Format: functional
Record form. Attribute: Activity. Fill in for each entry.
# number then unit; no other words

Q: Looking for the measured Activity of CC(C)(Cc1ccc(Oc2ccc(C(N)=O)cn2)cc1)NC[C@H](O)COc1cccc2[nH]c(=O)n(CCC3CCC3)c12 , can you help?
Result: 6.5%

Q: Also check CC(C)(Cc1ccc(Oc2ccc(C(N)=O)cn2)cc1)NC[C@H](O)COc1cccc2[nH]c(=O)n(CCC3CC3)c12
Result: 8.9%

Q: Lookup CCn1c(=O)[nH]c2cccc(OC[C@@H](O)CNC(C)(C)Cc3ccc(Oc4ccc(C(N)=O)cn4)cc3)c21
Result: 20.8%

Q: // next record CC(C)(Cc1ccc(Oc2ccc(C(N)=O)cn2)cc1)NC[C@H](O)COc1cccc2[nH]c(=O)n(CCC3CCCC3)c12
Result: 9.9%

Q: Next entry: Cn1c(=O)[nH]c2cccc(OC[C@@H](O)CNC(C)(C)Cc3ccc(Oc4ccc(C(N)=O)cn4)cc3)c21
Result: 17.7%

Q: Would you mind doing CCCn1c(=O)[nH]c2cccc(OC[C@@H](O)CNC(C)(C)Cc3ccc(Oc4ccc(C(N)=O)cn4)cc3)c21 as well?
Result: 19.9%
